Biological target: recombinant human Meningioma Expressed Antigen 5 (MGEA5), also referred to as O-GlcNAcase (OGA) (Homo sapiens, UniProt O60502)
Construct: Full length OGA enzyme was purchased at OriGene (cat # TP322411); purchased OriGene TP322411
Sequence (O60502 whole entry): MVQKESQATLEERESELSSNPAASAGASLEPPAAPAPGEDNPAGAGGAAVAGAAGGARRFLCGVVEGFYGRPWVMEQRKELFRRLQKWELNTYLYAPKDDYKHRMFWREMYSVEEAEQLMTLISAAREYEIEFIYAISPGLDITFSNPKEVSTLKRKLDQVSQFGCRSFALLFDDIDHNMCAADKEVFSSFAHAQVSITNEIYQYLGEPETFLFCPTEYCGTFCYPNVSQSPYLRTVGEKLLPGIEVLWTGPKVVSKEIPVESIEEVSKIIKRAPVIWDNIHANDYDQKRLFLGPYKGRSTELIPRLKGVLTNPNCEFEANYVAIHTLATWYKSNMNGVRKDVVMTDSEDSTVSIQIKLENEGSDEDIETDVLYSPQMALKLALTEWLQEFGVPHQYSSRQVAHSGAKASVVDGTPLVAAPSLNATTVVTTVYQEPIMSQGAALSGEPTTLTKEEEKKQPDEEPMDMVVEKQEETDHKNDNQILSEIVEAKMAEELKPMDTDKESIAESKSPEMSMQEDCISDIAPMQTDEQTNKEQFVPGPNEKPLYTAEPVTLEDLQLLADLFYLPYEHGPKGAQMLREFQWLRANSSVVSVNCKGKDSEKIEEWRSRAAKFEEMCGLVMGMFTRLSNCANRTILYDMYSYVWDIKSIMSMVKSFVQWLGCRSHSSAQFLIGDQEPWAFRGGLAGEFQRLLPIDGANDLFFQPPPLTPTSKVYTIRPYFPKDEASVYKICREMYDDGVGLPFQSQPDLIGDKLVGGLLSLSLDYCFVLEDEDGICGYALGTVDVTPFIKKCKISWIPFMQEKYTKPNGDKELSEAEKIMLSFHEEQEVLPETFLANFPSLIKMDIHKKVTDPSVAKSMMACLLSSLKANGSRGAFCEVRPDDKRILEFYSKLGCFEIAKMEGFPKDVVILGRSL
Experiment: OGA biochemical assay: inhibition of FM-GlcNAc hydrolysis, fluorescence; protocol A (10 nM OGA, 1 h) or protocol B (2 nM OGA, 6 h)
Settings: Enzymatic protocol B (2 nM OGA, 6 h)

COMPOUND: CC(=O)Nc1ncc(CN2CC[C@H](Cc3nnc(C)cc3C)C2)s1
Emax, %: 96.9
--
COMPOUND: Cc1cc(NC2CCCN(C(C)c3ccc4nccnc4c3)C2)cc(C)n1 (racemic)
Emax, %: 97.4
--
COMPOUND: CC(=O)Nc1ncc(CN2CC[C@H](Cc3cc(C)nc(C)c3)C2)s1
Emax, %: 102
--
COMPOUND: CC(=O)Nc1ncc(CN2CC[C@H](Cc3cc(C)c(F)cn3)C2)s1
Emax, %: 100
--
COMPOUND: Cc1cc(C[C@H]2CCCN(Cc3nc4ccccc4n3C)C2)cc(C)n1
Emax, %: 23.9
--
COMPOUND: Cc1cc(CC2CCCN(C(C)c3nc4ccccc4[nH]3)C2)cc(C)n1 (racemic)
Emax, %: 67.6
--
COMPOUND: CC(=O)Nc1ncc(CN2CCC[C@@H](Cc3cc(C)nc(C)c3)[C@H]2C)s1 (single isomer, unassigned) [compound 170]
Emax, %: 100
--
COMPOUND: COc1cnc(C[C@H]2CCN(Cc3cnc(NC(C)=O)s3)C2)c(F)c1
Emax, %: 100
--
COMPOUND: CC(=O)Nc1ncc(CN2CCCC(COc3cc(C)nc(C)c3)C2)s1 (stereo not drawn)
Emax, %: 101
--
COMPOUND: CC(=O)Nc1ncc(CN2CC[C@H](Cc3ccc(OC(F)(F)F)cn3)C2)s1
Emax, %: 97.9
--
COMPOUND: Cc1cc(C[C@H]2CCCN(Cc3ccc4sc(C)nc4c3)C2)cc(C)n1
Emax, %: 101
--
COMPOUND: CC(=O)Nc1ncc(CN2CCCC(COc3cc(C)nc(C)c3)C2)[nH]1 (stereo not drawn) [compound 120]
Emax, %: 91.9
--
COMPOUND: Cc1cc(C2CCCN(C(C)c3ccc4nccnc4c3)C2)cc(C(F)(F)F)n1 (stereo not drawn)
Emax, %: 101
--
COMPOUND: CC(=O)Nc1ncc(CN2CCCC(Cc3cc(C)nc(C)c3)C2)s1 (stereo not drawn)
Emax, %: 99.6
--
COMPOUND: CC(=O)Nc1ncc(CN2CCC(Cc3cncnc3C)C2)s1 (stereo not drawn)
Emax, %: 103
--
COMPOUND: CC(=O)Nc1ncc(CN2CCC[C@H](Oc3ccnc(C)c3)C2)s1 (racemic)
Emax, %: 100
--
COMPOUND: CC(=O)Nc1ncc(CN2CCC(Cc3ncc(F)cc3C)C2)s1 (stereo not drawn)
Emax, %: 102
--
COMPOUND: CC(=O)Nc1ncc(CN2CCCC(Cc3cc(C)nc(C)n3)C2)s1 (stereo not drawn)
Emax, %: 101
